- System: MOLT-4
- runDescription: NCI tumour cell line growth inhibition, 48 h
Active and inactive are the calls of the source. Rule as the data show it: active = GI50 up to about 1.1 µM and inactive = higher.
I'd be grateful if you could share measured GI50 for these entries.

Consider the compound `Nc1ccc(N)c2c1C(=O)c1ccccc1C2=O` and give its recorded GI50. 13.4 µM (inactive)

Consider the compound `CCc1nnc(CC)n1-n1c(Cc2ccccc2)n[nH]c1=O` and give its recorded GI50. > 100 µM (inactive)

API: the following record is the query input.
Consider the compound C[N+](C)(C)CC1CCC/C1=N\OC(=O)c1ccccc1 (stereo not drawn) and give its recorded GI50. > 100 µM (inactive)

----------
I'd be grateful if you could share measured GI50 for these entries.
- Tested on: DMS-273
- runDescription: NCI tumour cell line growth inhibition, 48 h
Calls of active or inactive are those of the source. Rule as the data show it: active = GI50 up to about 1.1 µM and inactive = higher.

Consider the molecule `Cc1c2c(c(C)c3c1[nH]c1ccccc13)CN(C)CC2` and give its recorded GI50. 16.7 µM (inactive)

Provide GI50 values for the following items, in order.
1. O=C(c1ccco1)c1ccccc1C(=O)c1ccco1
2. Cc1ccc(C(=O)OCC(C)C)cc1/N=N/N(C)C
3. COc1cc2c(cc1OC)NC(=O)NC(Cc1ccc3c(c1)OCO3)CC2 (configuration not stated)
4. CC12Oc3ccc4ccccc4c3C1c1c(ccc3ccccc13)O2 (configuration not stated)
5. Cc1cccc(NC(=O)Cc2nc3ccccc3s2)c1C
6. CCOC(=O)CCC1(C(=O)OC)CCCC1=O (configuration not stated)

1: > 100 µM (inactive); 2: 45.5 µM (inactive); 3: > 100 µM (inactive); 4: > 100 µM (inactive); 5: > 100 µM (inactive); 6: > 100 µM (inactive)

Provide GI50 values for the following items, in order.
1. O=C1Sc2ccccc2C(=O)N2CCSC12 (configuration not stated)
2. Cc1cc(Cl)ccc1NC(=O)CCCC(=O)C1CCCC1=O (configuration not stated)
3. Cc1cc(C)nc(NS(=O)(=O)c2ccc(NC(=O)c3cccc4c(Nc5ccc(S(=O)(=O)Nc6nc(C)cc(C)n6)cc5)c5ccc(Cl)cc5nc34)cc2)n1

1: > 100 µM (inactive); 2: > 100 µM (inactive); 3: 77.6 µM (inactive)

Provide GI50 values for the following items, in order.
1. CC1=C(C(=O)NCc2ccccc2)C(c2ccc(N(C)C)cc2)C(C(=O)NCc2ccccc2)=C(C)N1
2. Cc1ccc(/C=N/NS(=O)(=O)c2ccccc2)c(C)c1

1: > 100 µM (inactive); 2: > 100 µM (inactive)

----------
- System: RXF 631
- runDescription: NCI tumour cell line growth inhibition, 48 h
Calls of active or inactive are those of the source. Rule as the data show it: active = GI50 up to about 1.1 µM and inactive = higher.
observable: GI50

Write down the reported GI50 (system: RXF 631) of `c1ccc(CNc2ccc3[nH]c4cnccc4c3c2)cc1` 20.6 µM (inactive)

Provide GI50 values for the following items, in order.
1. O=C(Cc1nc2ccccc2c(=O)n1-c1c(Cl)cccc1Cl)c1ccncc1
2. COc1cc(CC(C)N)ccc1O (stereo not drawn)
3. Cc1cccc(NC(=O)Cc2nc3ccccc3s2)c1C

23.9 µM (inactive)
> 100 µM (inactive)
> 100 µM (inactive)

----------
- Test system: RPMI-8226
- runDescription: NCI tumour cell line growth inhibition, 48 h
Active and inactive are the calls of the source. Cut-off read from the data, not from the text of the source: active = GI50 up to about 1.1 µM and inactive = higher. Where a SMILES comes first, the peptide text is derived from it. [ ]: non-standard residue; d: D form. The star is where a group is joined. ξ: configuration not given here. X4 = COc1ccc(C(N*)c2ccc(OC)cc2)cc1; NMeF = CN[C@@H](Cc1ccccc1)C(=O)O; NMeD = CN[C@@H](CC(=O)O)C(=O)O; NMeV = CN[C@H](C(=O)O)C(C)C; ξNMeV = CNC(C(=O)O)C(C)C; Boc = CC(C)(C)OC(=O)*; ξNMeA = CNC(C)C(=O)O; ξV = CC(C)C(N)C(=O)O
Select the matching outcome among active, inactive

Example cases with answers are listed next.
Please indicate how the test categorized `Clc1ccc(CCn2cncn2)cc1` . inactive

Please indicate how the test categorized COc1ccc(C(NC(=O)C[C@@H](C(=O)N(C)C(C)C(=O)O)N(C)C(=O)[C@@H]2CCCN2C(=O)[C@H](C(C)C)N(C)C(=O)C(C(C)C)N(C)C(=O)[C@H](Cc2ccccc2)N(C)C(=O)C(NC(=O)OC(C)(C)C)C(C)C)c2ccc(OC)cc2)cc1 (some centres not stated) (Boc-[ξV][NMeF][ξNMeV][NMeV]P[NMeD](X4)[ξNMeA]-OH) . inactive

Please indicate how the test categorized `Cc1nc2cc(/N=N/c3c(C)noc3C)ccc2[nH]1` . inactive

Please indicate how the test categorized NC(CCCCCP(=O)(c1ccccc1)C1C=CC=CC1)C(=O)O (configuration not stated) . inactive

Please indicate how the test categorized `O=C(ON=c1c2ccccc2ccc2ccccc12)c1cc([N+](=O)[O-])cc([N+](=O)[O-])c1` . inactive

Please indicate how the test categorized Cc1ccc(C2=NN(C)COC2C(F)(F)F)cc1 (configuration not stated) . inactive

Please indicate how the test categorized `Cc1ccnc(NC(=S)Nc2ccccc2Cl)c1` . inactive

Please indicate how the test categorized `CCOC(=O)/C(=C/c1ccc(C(F)(F)F)cc1)N(CC)CC` . inactive

Further cases:
Please indicate how the test categorized `O=C(Nc1cccc(O)c1)C(=O)C1C(=O)NC(=S)NC1=O` . inactive

Please indicate how the test categorized COc1ccc(C[C@@H]2OC3(C=CC(=O)CC3Sc3ccccc3)O[C@H]2Cc2ccc(OC)cc2)cc1 (some centres not stated) . active

Please indicate how the test categorized `CC(C)(O)[C@@H]1CC[C@@]2(C)CCC[C@H](O)[C@H]2C1` . inactive

Please indicate how the test categorized C[N+](C)(C)CC1CCC/C1=N\OC(=O)c1ccccc1 (configuration not stated) . inactive

Please indicate how the test categorized Cc1ccc(NC(=O)C2C(=O)N(c3ccc(C)c(C)c3)C(=O)/C2=N\NC(N)=O)cc1C (configuration not stated) . inactive

Please indicate how the test categorized `c1ccc2c(c1)[nH]c1c2cc[n+]2cc3c(cc12)CCCC3` . inactive
